assay.details: Oral bioavailability in Wistar Han rat
Format: ADME, organism-based
recorded.conditions: in vivo
endpoint.name: bioavailability (%)

CCn1c(-c2ccc(C(F)(F)F)nc2)nc2c(O[C@H]3CCN(C(=O)c4cocn4)C3)ncnc21: 100
CCn1c(-c2ccc(C(F)(F)F)nc2)nc2c(O[C@H]3CCN(C(=O)[C@H]4C[C@@H](OC)C4)C3)ncnc21: 39
CCn1c(-c2cnc(C)nc2)nc2c(O[C@H]3CCN(C(=O)C4CCOCC4)C3)ncnc21: 31
CCn1c(-c2ccc(C(F)(F)F)nc2)nc2c(O[C@H]3CCN(C(=O)C4CCOC4)C3)ncnc21 (some centres undefined): 58

###

assay.details: Volume of distribution in Wistar Han rat
Type: ADME
recorded.conditions: in vivo
Cut-off 0.5 L/kg on Vd, inclusive. At or above means true; below means false.

CCn1c(-c2ccc(C(F)(F)F)nc2)nc2c(O[C@H]3CCN(C(=O)C4CCOC4)C3)ncnc21 (stereo partly drawn): false
CCn1c(-c2ccc(C(F)(F)F)nc2)nc2c(O[C@H]3CCN(C(=O)C4CC4)C3)ncnc21: true
CCn1c(-c2ccc(C(F)(F)F)nc2)nc2c(N[C@H]3CCN(C(=O)C4CC4)C3)ncnc21: false
CCn1c(-c2ccc(C(F)(F)F)nc2)nc2c(O[C@H]3CCN(C(=O)[C@H]4C[C@@H](OC)C4)C3)ncnc21: false
CCn1c(-c2ccc(C(F)(F)F)nc2)nc2c(O[C@H]3CCN(C(=O)c4cocn4)C3)ncnc21: false

###

assay.details: Trough plasma concentration Brown Norway rat at 30 mg/kg, po
Assay type: ADME, organism-based
recorded.conditions: in vivo, read-out: Cmin
endpoint.name: concentration (nM)

CCn1c(-c2cnc(C)nc2)nc2c(N[C@H]3CCN(C(=O)C4CC4)C3)ncnc21: 103

###

Quick list: pIC50 per entry.
experimental.system: Phosphatidylinositol 4,5-bisphosphate 3-kinase catalytic subunit delta isoform (Homo sapiens, UniProt O00329)
Sequence (O00329 whole entry): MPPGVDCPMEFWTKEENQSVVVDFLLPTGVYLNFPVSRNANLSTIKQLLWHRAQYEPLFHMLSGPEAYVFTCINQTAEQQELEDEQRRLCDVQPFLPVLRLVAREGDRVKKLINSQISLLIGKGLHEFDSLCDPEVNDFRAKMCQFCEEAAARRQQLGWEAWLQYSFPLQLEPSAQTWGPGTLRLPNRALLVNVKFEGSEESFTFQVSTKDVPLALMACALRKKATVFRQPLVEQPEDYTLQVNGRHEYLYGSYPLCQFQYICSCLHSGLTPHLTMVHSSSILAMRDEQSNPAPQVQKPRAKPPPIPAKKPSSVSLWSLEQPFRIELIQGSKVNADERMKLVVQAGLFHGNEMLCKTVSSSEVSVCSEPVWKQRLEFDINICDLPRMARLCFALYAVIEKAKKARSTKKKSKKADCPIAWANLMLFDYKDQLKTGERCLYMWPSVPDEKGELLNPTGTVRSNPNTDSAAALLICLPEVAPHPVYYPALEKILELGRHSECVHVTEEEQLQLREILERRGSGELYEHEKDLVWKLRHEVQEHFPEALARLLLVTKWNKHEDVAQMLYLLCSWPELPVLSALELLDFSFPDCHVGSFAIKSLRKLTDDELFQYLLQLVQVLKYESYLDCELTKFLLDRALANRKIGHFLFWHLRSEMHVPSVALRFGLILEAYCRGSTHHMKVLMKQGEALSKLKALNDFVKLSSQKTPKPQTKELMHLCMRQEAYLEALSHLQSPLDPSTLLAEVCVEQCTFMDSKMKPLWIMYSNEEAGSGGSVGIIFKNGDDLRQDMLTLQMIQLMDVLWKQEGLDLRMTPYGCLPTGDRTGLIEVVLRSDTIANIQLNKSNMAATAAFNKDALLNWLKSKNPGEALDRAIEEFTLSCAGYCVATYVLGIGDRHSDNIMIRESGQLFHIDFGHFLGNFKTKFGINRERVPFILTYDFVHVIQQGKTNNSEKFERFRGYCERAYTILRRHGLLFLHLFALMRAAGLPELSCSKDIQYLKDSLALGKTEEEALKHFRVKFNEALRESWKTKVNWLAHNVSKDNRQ
assay.details: Inhibition of PI3Kdelta in human whole blood assessed as reduction in anti-CD79b antibody-induced CD69 expression preincubated for 60 mins followed by anti-CD79b antibody stimulation and measured after 3 hrs by FACS analysis
Format: tissue-based
pIC50: −log10 of the molar value.
endpoint.name: pIC50

CCn1c(-c2ccc(C(F)(F)F)nc2)nc2c(O[C@H]3CCN(C(=O)c4cocn4)C3)ncnc21: 6.42
CCn1c(-c2cnc(C)nc2)nc2c(O[C@H]3CCN(C(=O)[C@H]4C[C@@H](OC)C4)C3)ncnc21: 7.12
CCn1c(-c2cnc(C)nc2)nc2c(N[C@H]3CCN(C(=O)N4CC(OC)C4)C3)ncnc21: 8.05

From: ChEMBL document CHEMBL4834420
